Data origin: paper PMC11908892

# System: M. tuberculosis H37Rv
# Assay: Microplate alamar blue assay
# Format: cell-based
# Particulars: Mycobacterium tuberculosis, read-out: Minimum Inhibitory Concentration (MIC90, μM) M. tuberculosis H37Rv MABA: 7H12 Media
// boundary case: MIC90 equal to 0.4 µM maps to f; strictly smaller maps to t

Smiles representation | Experimental target | Assigned class
NNC(=O)c1ccncc1 | M. tuberculosis H37Rv | t

Hello, is MIC90 of the following compound strictly smaller than 0.4 µM? `CC1(C)N=C(N)N=C(N)N1c1ccc(Cl)cc1`
f

Then `O=[N+]([O-])c1cn2c(n1)OC[C@@H](OCc1ccc(OC(F)(F)F)cc1)C2` ?
t

Then `CO[C@H]1/C=C/O[C@@]2(C)Oc3c(C)c(O)c4c(O)c(c(/C=N/N5CCN(C)CC5)c(O)c4c3C2=O)NC(=O)/C(C)=C\C=C\[C@H](C)[C@H](O)[C@@H](C)[C@@H](O)[C@@H](C)[C@H](OC(C)=O)[C@@H]1C` ?
t

Then `COc1c(N2C[C@@H]3CCCN[C@@H]3C2)c(F)cc2c(=O)c(C(=O)O)cn(C3CC3)c12` ?
f

Then `[H]/N=C(/N)N[C@H]1[C@H](O)[C@@H](O)[C@H](O[C@@H]2O[C@@H](C)[C@](O)(C=O)[C@H]2O[C@@H]2O[C@@H](CO)[C@H](O)[C@@H](O)[C@@H]2NC)[C@@H](N/C(N)=N\[H])[C@@H]1O` ?
t
